tested on: hMSC-OD6; assay: CCK-8 cell viability assay on 96-well plates, hMSCs osteogenesis Day 6; type: cell-based; conditions: Homo sapiens, read-out: IC50 hMSC-OD6
Structures can show the parent of a compound that is named as a salt.
Provide the recorded IC50 for the entries that follow.
Field format: number, assumed µM, no unit text.

Incoming: # IC50 lookup, item "C[C@@]12C(=O)OC(=O)[C@]1(C)[C@H]1CC[C@@H]2O1"
Outgoing: 6.17

Incoming: # IC50 lookup, item CC(=O)[C@]1(O)Cc2c(O)c3c(c(O)c2[C@@H](O[C@H]2C[C@H](N)[C@H](O)[C@H](C)O2)C1)C(=O)c1ccccc1C3=O [Idarubicin, idarubicin hydrochloride]
Outgoing: 10.8
